For each of the compounds below, state its pIC50.
Test system: SK-MEL-2
Experiment: Cytotoxicity against human SK-MEL-2 cells after 72 hrs by SRB assay
Assay type: functional, cell-based
Settings: SK-MEL-2, 72 h
One number for each entry, as −log10 of the molar value.

C=C(C)CCC(O)[C@]1(C)OC(=O)[C@]23CC[C@H]4C(=CC[C@H]5C(C)(C)[C@@H](O[C@@H]6OC[C@@H](O)[C@H](O)[C@H]6O[C@@H]6O[C@H](CO)[C@@H](O)[C@H](O)[C@H]6O)CC[C@]45C)[C@]2(C)CC[C@H]13 (stereo partly drawn)
4.36

Required: pIC50, one value per compound below.
1. CC(C)C[C@H](O)C[C@]1(C)OC(=O)[C@]23CC[C@H]4C(=CC[C@H]5C(C)(C)[C@@H](O[C@@H]6OC[C@@H](O)[C@H](O)[C@H]6O[C@@H]6OC[C@@H](O)[C@H](O)[C@H]6O)CC[C@]45C)[C@]2(C)CC[C@@H]31
2. Cc1c2ccncc2c(C)c2c1[nH]c1ccccc12 [ELLIPTECINE]

1. 4.38
2. 5.72

---

Test system: MCF7
Test: Cytotoxicity against human MCF7 cells after 72 hrs by SRB assay
Format: functional, cell-based
Settings: MCF7, 72 h
metric.name: pIC50
Numbers only, as −log10 of the molar value.

Give its pIC50 value. Item: CC(=O)O[C@@H](CC(C)C)C[C@]1(C)OC(=O)[C@]23CC[C@H]4C(=CC[C@H]5C(C)(C)[C@@H](O[C@@H]6OC[C@@H](O)[C@H](O)[C@H]6O[C@@H]6O[C@H](CO)[C@@H](O)[C@H](O)[C@H]6O)CC[C@]45C)[C@]2(C)CC[C@@H]31
5.20

---

For each of the compounds below, state its pIC50.
Tested on: MCF7
Assay: Cytotoxicity against human MCF7 cells after 72 hrs by SRB assay
Type: functional, cell-based
Details: MCF7, 72 h
Numbers only, as −log10 of the molar value.

CC(=O)O[C@@H](CC(C)C)C[C@]1(C)OC(=O)[C@]23CC[C@H]4C(=CC[C@H]5C(C)(C)[C@@H](O[C@@H]6OC[C@@H](O)[C@H](O)[C@H]6O[C@@H]6OC[C@@H](O)[C@H](O)[C@H]6O)CC[C@]45C)[C@]2(C)CC[C@@H]31
5.68

Give its pIC50 value. Item: C=C(C)C[C@@H](C[C@]1(C)OC(=O)[C@]23CC[C@H]4C(=CC[C@H]5C(C)(C)[C@@H](O[C@@H]6OC[C@@H](O)[C@H](O)[C@H]6O[C@@H]6OC[C@@H](O)[C@H](O)[C@H]6O)CC[C@]45C)[C@]2(C)CC[C@@H]31)OC(C)=O
5.68
